Experiment: chemical genetic growth profiling, strain panel (AID 1159580);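 also: tested at 20 µM; growth read once vehicle control cultures reached saturation at 30 °C; 1 = growth at the plate median or of vehicle wells; lower values mean less growth of the strain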
Settings: S. cerevisiae deletion strains, growth OD, locus YNL298W, strain CLA4, hits give low values
Screen size: about 5,500 compounds; about 2,000 (36%) were called active. About 18% were inconclusive and are not listed. The list shows a part of the results. Where a SMILES comes first, the peptide text is derived from it. Bridges are numbered along the chain shown (N, C = ends). Side-chain parts run from the residue outwards. [ ]: non-standard residue; d: D form. The star is where a group is joined. Octanoyl(6-Me) = CCC(C)CCCCC(=O)*; X1 = CCC(C)C(N)C1=NC(C(=O)*)CS1; Orn = NCCC[CH](N)C(=O)O; Dab = NCC[CH](N)C(=O)O
Examples of compounds with documented normalized growth follow.

compound	normalized growth
CC(N)C(O)c1ccc(O)c(O)c1 (stereo unspecified)	0.982
COC(=O)[C@]1(C)CC[C@]2(C)CC[C@]3(C)C4=CC=C5C(=CC(=O)C(O)=C5C)[C@]4(C)CC[C@@]3(C)[C@@H]2C1	0.957
CCC(C)CCCCC(=O)NC(CCN)C(=O)NC(C(=O)NC(CCN)C(=O)NC1CCNC(=O)C(C(C)O)NC(=O)C(CCN)NC(=O)C(CCN)NC(=O)C(CC(C)C)NC(=O)C(Cc2ccccc2)NC(=O)C(CCN)NC1=O)C(C)O (stereo unspecified) ({Octanoyl(6-Me)}-[Dab]T[Dab][Dab][Dab]FL[Dab][Dab]T; lactam 4-C; configuration not given here)	0.997
COc1cc2c(cc1O)CCNC2C (stereo unspecified)	0.989
Cc1onc(-c2ccccc2Cl)c1C(=O)N[C@@H]1C(=O)N2[C@@H]1SC(C)(C)[C@@H]2C(=O)O	1.04
CC(=O)OCC1=C(C(=O)O)N2C(=O)[C@@H](NC(=O)CCCC(N)C(=O)O)C2SC1 (stereo partly specified)	1.02
CC(C)CC1NC(=O)C(CCCN)NC(=O)C(C(C)C)NC(=O)C2CCCN2C(=O)C(Cc2ccccc2)NC(=O)C(CC(C)C)NC(=O)C(CCCN)NC(=O)C(C(C)C)NC(=O)C2CCCN2C(=O)C(Cc2ccccc2)NC1=O (stereo unspecified) (cyclo(FPV[Orn]LFPV[Orn]L); configuration not given here)	0.967
COc1c2c(cc3c1OCO3)C13C=C[C@H](OC)CC1N(C2)CC3O (stereo partly specified)	0.985
c1ccc([C@H]2CN3CCSC3=N2)cc1	1
CC(=O)NO	0.993
CC(=O)OCC(=O)[C@@]1(O)CCC2C3CC[C@@H]4C[C@H](OC(C)=O)CC[C@]4(C)C3C(=O)C[C@@]21C (stereo partly specified)	1.01
CC(=O)O[C@@H]1CC[C@]2(C)C3CC[C@]4(C)C(=O)CCC4C3CC[C@H]2C1 (stereo partly specified)	0.913
NC(=O)NO	0.997
COc1ccc2c(=O)ccoc2c1	0.977
Cc1cc(C(C)(C)C)c(O)c(C)c1CC1=NCCN1	0.982
COc1c2ccoc2cc2oc(C)cc(=O)c12	0.975
COc1cccc(OC)c1C(=O)N[C@@H]1C(=O)N2[C@@H]1SC(C)(C)[C@@H]2C(=O)O	0.98
C=C(C)[C@H]1Cc2c(ccc3c2O[C@@H]2COc4cc(OC)c(OC)cc4[C@@H]2C3=O)O1	1.01
Cc1onc(-c2ccccc2)c1C(=O)NC1C(=O)N2[C@@H]1SC(C)(C)[C@@H]2C(=O)O (stereo partly specified)	1.02
CO[C@H]1C[C@H](O[C@H]2[C@H](C)[C@@H](OC3O[C@H](C)C[C@H](N(C)C)[C@H]3OC(C)=O)[C@@H](C)C[C@]3(CO3)C(=O)[C@H](C)[C@@H](OC(C)=O)[C@@H](C)[C@@H](C)OC(=O)[C@@H]2C)O[C@@H](C)[C@@H]1OC(C)=O (stereo partly specified)	0.969
COc1cc(NS(=O)(=O)c2ccc(N)cc2)ncn1	0.983
CCC(C)C(N)C1=NC(C(=O)NC(CC(C)C)C(=O)NC(CCC(=O)O)C(=O)NC(C(=O)NCCCCC2NC(=O)C(CC(N)=O)NC(=O)C(CC(=O)O)NC(=O)C(Cc3cnc[nH]3)NC(=O)C(Cc3ccccc3)NC(=O)C(C(C)CC)NC(=O)C(CCCN)NC2=O)C(C)CC)CS1 (stereo not drawn) (cyclo(DNK([Ile-Glu-Leu-X1])[Orn]IFH); configuration not given here)	0.966
Cc1onc(-c2c(Cl)cccc2Cl)c1C(=O)N[C@@H]1C(=O)N2[C@@H]1SC(C)(C)[C@@H]2C(=O)O	0.999
COc1cccc(O)c1O	0.99
O=C(CCc1ccc(O)cc1)c1c(O)cc(O)cc1O[C@@H]1O[C@H](CO)[C@@H](O)[C@H](O)[C@H]1O	0.998
COc1cc2c(cc1OC)-c1c(oc3c4c(ccc3c1=O)OC(C(C)C)C4)CO2 (stereo unspecified)	0.979
CC(=O)OC1CCC2(C)C3CC(=O)C4(C)C(CC5OC6(CCC(C)CO6)[C@@H](C)C54)C3CC[C@H]2C1 (stereo partly specified)	0.973
CC(=O)OCC(=O)[C@@]12OC3(CCCC3)O[C@@H]1CC1C3CCC4=CC(=O)C=C[C@]4(C)[C@@]3(F)[C@@H](O)C[C@@]12C (stereo partly specified)	0.982
CC(=O)Oc1cccc(C(=O)O)c1OC(C)=O	1.02
CC(=O)Oc1cc2c(c(C)c1OC(C)=O)CC1OC13C2(C)CCC1(C)C2CC(C)(C(=O)O)CCC2(C)CCC13C (stereo unspecified)	0.994
CC(=O)O[C@H]1CC[C@]2(C)C3CC[C@@]4(C)C(CC5O[C@@]6(CCC(C)CO6)[C@@H](C)C54)C3CC[C@@H]2C1 (stereo partly specified)	1

---

Test: chemical genetic growth profiling, strain panel (AID 1159580);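 also: tested at 20 µM; growth read once vehicle control cultures reached saturation at 30 °C; 1 = growth at the plate median or of vehicle wells; lower values mean less growth of the strain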
Conditions: S. cerevisiae deletion strains, growth OD, locus YDR054C, strain cdc34, hits give low values
The whole screen tested about 5,500 compounds, of which about 2,000 (36%) were called active. Inconclusive results (about 18%) are left out. The list shows a part of the results.
recordedEndpoint: normalized growth

molecule	experimentalValue
FC(F)(F)c1cc(-c2ccc(Cl)cc2)n[nH]1	0.904
CS/C(Nc1cccc(C(F)(F)F)c1)=C(/C#N)S(=O)(=O)c1ccc(Cl)cc1	0.946
COc1cc(N2C(=O)C=CC2=O)cc(OC)c1OC	0.947
O=C(c1cc2c(s1)-c1ccccc1CC2)N1CCN(Cc2ccccc2)CC1	0.99
O=C(Nc1cc2c(s1)-c1cc(Cl)ccc1SC2)Oc1ccccc1	0.999
N#C/C(=N/Nc1cccc(C(F)(F)F)c1)C(=O)c1csc(-c2cccnc2)n1	0.939
OC(CSc1ccccc1)CN1CCN(c2nc(-c3ccccc3)ns2)CC1 (centres undefined)	0.977
O=C(NNC(=S)Nc1ccc(Cl)cc1)c1ncc(C(F)(F)F)cc1Cl	0.961
CC(C)(C)c1ccc(C(=O)NNC(=S)Nc2ccc(Cl)cc2)cc1	0.968

---

Experiment: chemical genetic growth profiling, strain panel (AID 1159580);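 also: tested at 20 µM; growth read once vehicle control cultures reached saturation at 30 °C; 1 = growth at the plate median or of vehicle wells; lower values mean less growth of the strain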
Settings: S. cerevisiae deletion strains, growth OD, locus YKR091W, strain srl3, hits give low values
About 2,000 (36%) of roughly 5,500 compounds were called active. Another 18% or so got no clear call; they are omitted. This is one part of the list.
recordedEndpoint: normalized growth

compound	experimentalValue
CCOc1cccc(C(=O)c2ccc(O)c(O)c2O)c1	0.966
CCCCCCCCCCCCCCCCCCOCC(O)CO (configuration not stated)	0.995
COC(=O)[C@]1(C)CC[C@]2(C)CC[C@]3(C)C4=CC=C5C(=CC(=O)C(O)=C5C)[C@]4(C)CC[C@@]3(C)[C@@H]2C1	0.995
C[C@]12CCC(=O)C=C1CCC1C2[C@@H](O)C[C@@]2(C)C1CC[C@]2(O)C(=O)COC(=O)CCC(=O)O (some centres not stated)	1
C#CC1(O)CCC2C3CCC4=CC(=O)CCC4(C)C3CCC21C (configuration not stated)	0.977
CC1(C)C(=O)[C@@H]2C[C@@]3(O)C4=CC(=O)O[C@@H](c5ccoc5)[C@]4(C)CCC3[C@@](C)(C2=O)[C@H]1CC(=O)O (some centres not stated)	1
C[C@]12CCC(=O)C=C1CCC1C2C(=O)C[C@@]2(C)C1CC[C@]2(O)C(=O)CO (some centres not stated)	0.999

---

Experiment: chemical genetic growth profiling, strain panel (AID 1159580);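 also: tested at 20 µM; growth read once vehicle control cultures reached saturation at 30 °C; 1 = growth at the plate median or of vehicle wells; lower values mean less growth of the strain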
Conditions: S. cerevisiae deletion strains, growth OD, locus YOR136W, strain idh2, hits give low values
About 2,000 (36%) of roughly 5,500 compounds were called active. About 18% were inconclusive and are not listed. The list shows a part of the results. Where a SMILES comes first, the peptide text is derived from it. Bridges are numbered along the chain shown (N, C = ends). [ ]: non-standard residue; d: D form. The star is where a group is joined. Octanoyl(6-Me) = CCC(C)CCCCC(=O)*; Orn = NCCC[CH](N)C(=O)O; Dab = NCC[CH](N)C(=O)O

compound	normalized growth
O=c1[nH]cnc2c1ncn2C1O[C@H](CO)[C@@H](O)[C@H]1O (some centres not stated)	1.02
CC(=O)OCC(=O)[C@@]12OC3(CCCC3)O[C@@H]1CC1C3CCC4=CC(=O)C=C[C@]4(C)[C@@]3(F)[C@@H](O)C[C@@]12C (some centres not stated)	0.981
CC(C)CC1NC(=O)C(CCCN)NC(=O)C(C(C)C)NC(=O)C2CCCN2C(=O)C(Cc2ccccc2)NC(=O)C(CC(C)C)NC(=O)C(CCCN)NC(=O)C(C(C)C)NC(=O)C2CCCN2C(=O)C(Cc2ccccc2)NC1=O (configuration not stated) (cyclo(FPV[Orn]LFPV[Orn]L); configuration not given here)	1
O=c1c(O)c(-c2ccc(O)c(O)c2)oc2cc(O)ccc12	0.976
CCCc1nc2c(C)cc(-c3nc4ccccc4n3C)cc2n1Cc1ccc(-c2ccccc2C(=O)O)cc1	1.01
NC(=O)NO	0.991
CO[C@@]1(NC(=O)Cc2cccs2)C(=O)N2C(C(=O)O)=C(COC(N)=O)CS[C@@H]21	1
COc1cc(/C=C/C=O)cc(OC)c1OC	1.01
COc1cc(-c2oc3cc(O)ccc3c(=O)c2O)cc(OC)c1OC	1.02
CCOc1ccc(NC(C)=O)cc1	0.996
O=C(O)c1cc([N+](=O)[O-])ccc1NCCCc1ccccc1	0.993
COc1cc(NS(=O)(=O)c2ccc(N)cc2)ncn1	0.981
CC(=O)O[C@H]1CC[C@]2(C)C3CC[C@@]4(C)C(CC5O[C@@]6(CCC(C)CO6)[C@@H](C)C54)C3CC[C@@H]2C1 (some centres not stated)	0.993
CCOc1ccc(C(=O)c2ccc(O)c(O)c2O)cc1	0.962
CN1C(=O)CCS(=O)(=O)C1c1ccc(Cl)cc1 (configuration not stated)	1.01
Cc1cc(C(C)(C)C)cc(C)c1CC1=NCCN1	0.997
CC(=O)OC1CCC2(C)C3CC(=O)C4(C)C(CC5OC6(CCC(C)CO6)[C@@H](C)C54)C3CC[C@H]2C1 (some centres not stated)	0.981
CCC1(CC)C(=O)C=CNC1=O	0.994
CC(=O)O[C@H]1CC[C@]2(C)C3CC[C@@]4(C)C(CC5O[C@@]6(CCC(C)CO6)[C@@H](C)C54)C3CC[C@H]2C1 (some centres not stated)	0.968
CC1=NN(c2ccccc2)C(=O)C1	0.966
CC(=O)Oc1cc2c(c(C)c1OC(C)=O)CC1OC13C2(C)CCC1(C)C2CC(C)(C(=O)O)CCC2(C)CCC13C (configuration not stated)	1.02
CCC(C)CCCCC(=O)NC(CCN)C(=O)NC(C(=O)NC(CCN)C(=O)NC1CCNC(=O)C(C(C)O)NC(=O)C(CCN)NC(=O)C(CCN)NC(=O)C(CC(C)C)NC(=O)C(Cc2ccccc2)NC(=O)C(CCN)NC1=O)C(C)O (configuration not stated) ({Octanoyl(6-Me)}-[Dab]T[Dab][Dab][Dab]FL[Dab][Dab]T; lactam 4-C; configuration not given here)	1
COc1ccc2c(c1OC)OC[C@@H](c1ccc(OC)c(OC)c1OC)C2	1.01
COc1ccc([C@H]2COc3c(ccc(O)c3OC)C2)c(OC)c1O	0.978
COc1ccc(C(=O)c2ccccc2)c(O)c1O	0.952
O=C(OC[C@H]1O[C@H](OC(=O)c2cc(O)c(O)c(OC(=O)c3cc(O)c(O)c(O)c3)c2)[C@H](OC(=O)c2cc(O)c(O)c(OC(=O)c3cc(O)c(O)c(O)c3)c2)[C@@H](OC(=O)c2cc(O)c(O)c(OC(=O)c3cc(O)c(O)c(O)c3)c2)[C@@H]1OC(=O)c1cc(O)c(O)c(OC(=O)c2cc(O)c(O)c(O)c2)c1)c1cc(O)c(O)c(OC(=O)c2cc(O)c(O)c(O)c2)c1	0.108
COc1cccc(O)c1O	0.994
